Measured pIC50 (BRD4 (I) (Homo sapiens (Human)))
Scale explanation: pIC50 corresponds to minus log10 of a concentration expressed in moles per litre.

Some molecules with recorded pIC50:
INSERT INTO measurements (molecule, recorded_value) VALUES
  ('Cc1ccc(-n2nc(C(=O)N(C)CCN(C)C)nc2-c2ccc3c(c2)N(C2CCCC2)[C@H](C)C(=O)N3C)cc1', 8.08),
  ('Cc1ccc(-n2nc(C(=O)N3CCN(C)CC3)nc2-c2ccc3c(c2)N(C2CCCC2)[C@H](C)C(=O)N3C)cc1', 8.19),
  ('Cc1ccc(-n2nc(C(=O)N3CCC4(CCCC4)CC3)nc2-c2ccc3c(c2)N(C2CCCC2)[C@H](C)C(=O)N3C)cc1', 7.60),
  ('Cc1ccc(-n2nc(C(=O)N3CC4CCC(C3)N4C)nc2-c2ccc3c(c2)N(C2CCCC2)[C@H](C)C(=O)N3C)cc1', 8.35),
  ('CCN1CCN(C(=O)c2nc(-c3ccc4c(c3)N(C3CCCC3)[C@H](C)C(=O)N4C)n(-c3ccc(C)cc3)n2)CC1', 8.30);

Fill in the recorded pIC50 for this molecule, with BRD4 (I) (Homo sapiens (Human)) as test system: Cc1ccc(-n2nc(C(=O)N3CC4CCC(C3)N4C)cc2-c2ccc3c(c2)N(C2CCCC2)[C@H](C)C(=O)N3C)cc1
8.11

Fill in the recorded pIC50 for this molecule, with BRD4 (I) (Homo sapiens (Human)) as test system: Cc1ccc(-n2nc(C(=O)N3CCN(C(C)C)CC3)nc2-c2ccc3c(c2)N(C2CCCC2)[C@H](C)C(=O)N3C)cc1
8.38

Fill in the recorded pIC50 for this molecule, with BRD4 (I) (Homo sapiens (Human)) as test system: Cc1ccc(-n2nc(C(=O)N3C[C@@H](C)N[C@@H](C)C3)cc2-c2ccc3c(c2)N(C2CCCC2)[C@H](C)C(=O)N3C)cc1
8.31

Fill in the recorded pIC50 for this molecule, with BRD4 (I) (Homo sapiens (Human)) as test system: Cc1ccc(-n2nc(C(=O)N3C[C@@H](C)N[C@@H](C)C3)nc2-c2ccc3c(c2)N(C2CCOCC2)[C@H](C)C(=O)N3C)cc1
7.99

Fill in the recorded pIC50 for this molecule, with BRD4 (I) (Homo sapiens (Human)) as test system: Cc1ccc(-n2c(C)nnc2-c2ccc3c(c2)N(C2CCCC2)[C@H](C)C(=O)N3C)cc1
8.29

Fill in the recorded pIC50 for this molecule, with BRD4 (I) (Homo sapiens (Human)) as test system: Cc1ccc(-n2nc(C(=O)N3C4CCC3CN(C)C4)cc2-c2ccc3c(c2)N(C2CCCC2)[C@H](C)C(=O)N3C)cc1
8.17

Fill in the recorded pIC50 for this molecule, with BRD4 (I) (Homo sapiens (Human)) as test system: Cc1ccc(-n2nc(C(=O)N3CCN4CCCC4C3)nc2-c2ccc3c(c2)N(C2CCCC2)[C@H](C)C(=O)N3C)cc1 (stereo partly drawn)
8.09

Fill in the recorded pIC50 for this molecule, with BRD4 (I) (Homo sapiens (Human)) as test system: C[C@@H]1C(=O)N(C)c2ccc(-c3nc(C(=O)N4CCN(C)CC4)nn3-c3ccccc3)cc2N1C1CCCC1
8.12

Fill in the recorded pIC50 for this molecule, with BRD4 (I) (Homo sapiens (Human)) as test system: Cc1ccc(-n2nc(C(=O)N3CCN(C)CC3)nc2-c2ccc3c(c2)N(C2CCCC2)[C@H](C)C(=O)N3C)c(C)c1
8.09

###

The compounds listed here are annotated with their microsomal CLint at 1 μM.
assay.summary: Metabolic stability in mouse liver microsomes
Type: in vitro ADME
details: read-out: mLM Clint
Numbers only; they are read as µL/min/mg.

Some compounds with recorded microsomal CLint at 1 μM:
INSERT INTO results (smiles_text, recorded_value) VALUES
  ('C[C@@H]1C(=O)N(C)c2ccc(-c3nc(C(=O)N4CCCN(C)CC4)nn3-c3ccccc3)cc2N1C1CCCC1', 62),
  ('Cc1ccc(-n2nc(C(=O)N3C[C@@H](C)N[C@@H](C)C3)nc2-c2ccc3c(c2)N(C2CCCC2)[C@H](C)C(=O)N3C)cc1', 7),
  ('Cc1ccc(-n2nc(C(=O)N3C[C@@H](C)N[C@@H](C)C3)cc2-c2ccc3c(c2)N(C2CCCC2)[C@H](C)C(=O)N3C)cc1', 6);

Proceed to the following item.
I have this compound here, Cc1ccc(-n2nc(C(=O)N3CCN(C)CC3)cc2-c2ccc3c(c2)N(C2CCCC2)[C@H](C)C(=O)N3C)cc1 , and I need its recorded microsomal CLint at 1 μM.
52

###

assay.system: 3A4 (Homo sapiens (Human), UniProt P08684)
Sequence (P08684 whole entry): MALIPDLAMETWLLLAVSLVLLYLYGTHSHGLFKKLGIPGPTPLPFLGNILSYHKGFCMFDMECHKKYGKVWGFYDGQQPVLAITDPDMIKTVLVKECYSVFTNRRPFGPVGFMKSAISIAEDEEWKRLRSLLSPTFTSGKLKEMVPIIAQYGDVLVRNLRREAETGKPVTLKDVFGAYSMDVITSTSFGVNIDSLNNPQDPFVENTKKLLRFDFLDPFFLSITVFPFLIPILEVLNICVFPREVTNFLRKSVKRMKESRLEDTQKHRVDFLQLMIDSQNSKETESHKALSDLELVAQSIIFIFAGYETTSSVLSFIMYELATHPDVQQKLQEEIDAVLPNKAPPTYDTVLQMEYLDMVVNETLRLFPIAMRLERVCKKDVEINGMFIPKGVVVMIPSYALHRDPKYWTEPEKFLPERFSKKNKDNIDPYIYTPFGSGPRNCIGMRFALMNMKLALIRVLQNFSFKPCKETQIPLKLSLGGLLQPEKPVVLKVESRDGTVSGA
assay.summary: Direct inhibition test (DI test), CYP 3A4
Assay type: in vitro ADME
details: human liver microsomes 0.2 mg/ml, 20 min; second of two values a/b (two 3A4 probes midazolam, testosterone; assignment not given)
assay.readout: Direct inhibition rate (%) 3A4, second value
Numbers only; they are read as %.

INSERT INTO measurements (compound, recorded_value) VALUES
  ('C[C@@H]1C(=O)N(C)c2ccc(-c3nc(C(=O)N4CCCN(C)CC4)nn3-c3ccccc3)cc2N1C1CCCC1', 6);

I have this compound here, Cc1ccc(-n2nc(C(=O)N3CCN(C)CC3)nc2-c2ccc3c(c2)N(C2CC2)C(C)C(=O)N3C)cc1 (stereo not drawn) , and I need its recorded Direct inhibition rate (%) 3A4, second value.
12

I have this compound here, Cc1ccc(-n2nc(C(=O)N3CCN(C)CC3)cc2-c2ccc3c(c2)N(C2CCCC2)[C@H](C)C(=O)N3C)cc1 , and I need its recorded Direct inhibition rate (%) 3A4, second value.
37

I have this compound here, Cc1ccc(-n2nc(C(=O)N3C[C@@H](C)N[C@@H](C)C3)nc2-c2ccc3c(c2)N(C2CCCC2)[C@H](C)C(=O)N3C)cc1 , and I need its recorded Direct inhibition rate (%) 3A4, second value.
28

I have this compound here, Cc1ccc(-n2nc(C(=O)N3CCN(C)CC3)nc2-c2ccc3c(c2)N(C2CCCC2)[C@H](C)C(=O)N3C)cc1 , and I need its recorded Direct inhibition rate (%) 3A4, second value.
31

I have this compound here, Cc1ccc(-n2nc(C(=O)N3C[C@@H](C)N[C@@H](C)C3)cc2-c2ccc3c(c2)N(C2CCCC2)[C@H](C)C(=O)N3C)cc1 , and I need its recorded Direct inhibition rate (%) 3A4, second value.
47

###

assay.system: BRD4 (I) (Homo sapiens (Human))
The compounds listed here are annotated with their IC50.
Numbers only; they are read as µM.

Fill in the recorded IC50 for this compound, with BRD4 (I) (Homo sapiens (Human)) as test system: C[C@@H]1C(=O)N(C)c2ccc(-c3nc(C(=O)N4CCCN(C)CC4)nn3-c3ccccc3)cc2N1C1CCCC1 [Example 8]
0.0098

Fill in the recorded IC50 for this compound, with BRD4 (I) (Homo sapiens (Human)) as test system: Cc1ccc(-n2nc(C(=O)N3CCN(C)CC3)nc2-c2ccc3c(c2)N(C2CC2)C(C)C(=O)N3C)cc1 (stereo not shown) [Example 33]
0.0157

Fill in the recorded IC50 for this compound, with BRD4 (I) (Homo sapiens (Human)) as test system: Cc1ccc(-n2nc(C(=O)N3CCCN(C)CC3)nc2-c2ccc3c(c2)N(C2CCCC2)[C@H](C)C(=O)N3C)cc1 [Example 19]
0.0046

Fill in the recorded IC50 for this compound, with BRD4 (I) (Homo sapiens (Human)) as test system: CCN1CCN(C(=O)c2nc(-c3ccc4c(c3)N(C3CC3)C(C)C(=O)N4C)n(-c3ccc(C)cc3C)n2)CC1 (stereo not shown) [Example 35]
0.0145

Fill in the recorded IC50 for this compound, with BRD4 (I) (Homo sapiens (Human)) as test system: Cc1ccc(-n2nc(C(=O)N3CCN(C)CC3)nc2-c2ccc3c(c2)N(C2CC2)C(C)C(=O)N3C)c(C)c1 (stereo not shown) [Example 34]
0.0139

###

The compounds listed here are annotated with their half-life at 1 μM.
assay.summary: Metabolic stability in mouse liver microsomes
Assay type: in vitro ADME
details: read-out: half-lives in mouse liver microsomes
Numbers only; they are read as h.

INSERT INTO measurements (compound, assay_readout, recorded_value) VALUES
  ('Cc1ccc(-n2nc(C(=O)N3C[C@@H](C)N[C@@H](C)C3)nc2-c2ccc3c(c2)N(C2CCCC2)[C@H](C)C(=O)N3C)cc1 [Example 12]', 'half-life at 1 μM', 3.22);

Proceed to the following item.
I have this compound here, Cc1ccc(-n2nc(C(=O)N3C[C@@H](C)N[C@@H](C)C3)cc2-c2ccc3c(c2)N(C2CCCC2)[C@H](C)C(=O)N3C)cc1 [Example 27] , and I need its recorded half-life at 1 μM.
4.13

###

assay.system: CYP2C9 (Homo sapiens (Human), UniProt P11712)
Sequence (P11712 whole entry): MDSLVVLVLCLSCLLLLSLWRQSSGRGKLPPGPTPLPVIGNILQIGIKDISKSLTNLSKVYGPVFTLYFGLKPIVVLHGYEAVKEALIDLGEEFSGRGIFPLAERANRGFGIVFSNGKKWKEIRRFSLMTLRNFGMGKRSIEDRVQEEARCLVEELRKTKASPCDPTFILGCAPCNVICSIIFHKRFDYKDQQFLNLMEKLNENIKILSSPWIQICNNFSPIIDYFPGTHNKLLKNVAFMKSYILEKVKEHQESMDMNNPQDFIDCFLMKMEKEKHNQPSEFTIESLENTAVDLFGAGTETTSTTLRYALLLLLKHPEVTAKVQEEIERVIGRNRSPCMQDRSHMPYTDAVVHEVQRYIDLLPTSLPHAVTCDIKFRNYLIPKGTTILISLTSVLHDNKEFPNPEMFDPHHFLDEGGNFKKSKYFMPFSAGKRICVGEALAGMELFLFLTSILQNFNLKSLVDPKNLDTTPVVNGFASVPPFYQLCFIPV
assay.summary: Direct inhibition test (DI test), CYP 2C9
Type: in vitro ADME
details: human liver microsomes 0.2 mg/ml, read-out: Direct inhibition rate (%) 2C9
assay.readout: inhibition at 20 min (%)
Numbers only; they are read as %.

INSERT INTO results (smiles_text, measure_unit, recorded_value) VALUES
  ('Cc1ccc(-n2nc(C(=O)N3CCN(C)CC3)cc2-c2ccc3c(c2)N(C2CCCC2)[C@H](C)C(=O)N3C)cc1', '%', 39);

Proceed to the following item.
I have this molecule here, Cc1ccc(-n2nc(C(=O)N3C[C@@H](C)N[C@@H](C)C3)cc2-c2ccc3c(c2)N(C2CCCC2)[C@H](C)C(=O)N3C)cc1 , and I need its recorded inhibition at 20 min.
27

Ref: patent US11078188B2
